experiment: Plasma Leonurine, cysteine and ascorbic acid levels (capillary electrophoresis) in rat heart failure model
Type: in vivo
test-conditions: rat, plasma, oral, HF rats, 30 mg/kg/day intragastric, read-out: plasma Leonurine level
experimental-endpoint: concentration at 8 weeks (µM)

[
  {
    "compound": "COc1cc(C(=O)OCCCCNC(=N)N)cc(OC)c1O [Leonurine]",
    "experimental-endpoint": "concentration at 8 weeks",
    "reported-result": 48
  }
]

----------
experiment: Plasma Leonurine, cysteine and ascorbic acid levels (capillary electrophoresis) in rat heart failure model
Assay type: in vivo
test-conditions: rat, plasma, oral, HF rats, 15 mg/kg/day intragastric, read-out: plasma Leonurine level

[
  {
    "compound": "COc1cc(C(=O)OCCCCNC(=N)N)cc(OC)c1O [Leonurine]",
    "concentration at 8 weeks [µM]": 7.42
  }
]
